Recorded values, source PubChem BioAssay AID540364.

EXPERIMENTAL DETAILS: FXN promoter activators, primary screen, cell-based, luciferase luminescence, HEK293 lucGAA850 (AID 540364);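 further: 0% = DMSO wells and 100% = 10 µM SAHA wells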
PROTOCOL CONDITIONS: HEK293 lucGAA850 FXN promoter luciferase reporter, 24 h; at 6 µM; stronger effect = higher value; percent of 10 µM SAHA response
The campaign covered roughly 360,000 compounds. About 2,000 (0.56%) were called active. Many of the other results were omitted from the sample, so actives are more common in it than they were.
READOUT TYPE: activation (%)
Give the quantity in %, number only.

Use these answered entries as a reference point.
MOLECULE	UNIT OF MEASURE	RESULT
CCOc1cccc2cc(C(=O)OCC(=O)Nc3c(C)cccc3CC)c(=O)oc12	%	1.17
COc1ccc(-c2csc(Nc3ccc(O)cc3)n2)cc1	%	8.06
Cc1ccc(C2Nc3cccc4cccc(c34)N2)cc1	%	14.9
COc1ccc(C(C)(O)c2nc(-c3ccc(C)c(C)c3)cs2)cc1 (configuration not stated)	%	0.79

// query Fill in reported activation for this entry: Cc1ccc2nsnc2c1NC(=O)c1ccccc1[N+](=O)[O-]
// result 3.24

// query Fill in reported activation for this entry: N#C/C(=C(\O)CCl)c1nnc2n1CCCCC2
// result -0.95

// query Fill in reported activation for this entry: COc1cc(/C=C2\Oc3ccc(C#Cc4ccc(O)cc4)cc3C2=O)cc(OC)c1
// result -0.08

// query Fill in reported activation for this entry: COC(=O)CNC(=O)c1ccccc1[N+](=O)[O-]
// result 1.03

// query Fill in reported activation for this entry: COCCn1c(=NC(=O)c2ccccc2[N+](=O)[O-])sc2cc(S(C)(=O)=O)ccc21
// result 8.06

// query Fill in reported activation for this entry: COc1ccc(-c2csc(Cc3nc(O)cs3)n2)cc1
// result 21.7

// query Fill in reported activation for this entry: NC(=O)c1ccsc1NC(=O)COC(=O)COc1ccc(C=O)cc1
// result 1.47

// query Fill in reported activation for this entry: CCn1c(CC(=O)Nc2ccccc2C)nnc1SCC(=O)NC1=NCCS1
// result -0.89

// query Fill in reported activation for this entry: Cc1ccc(Nc2nc(-c3ccc(O)cc3O)cs2)nc1
// result 2.15

// query Fill in reported activation for this entry: COc1cc(C#Cc2ccc3cc(CCCO)oc(=O)c3c2)cc(OC)c1
// result 7.61

// query Fill in reported activation for this entry: Cc1noc(C)c1NC(=O)Nc1ccc2c(c1)C(=O)N([C@H](C)CO)C[C@H](C)[C@@H](CN(C)S(=O)(=O)c1cn(C)cn1)O2
// result 0.14

// query Fill in reported activation for this entry: Cc1cccc(-n2c(Cc3cc(=O)[nH]c(=O)[nH]3)nnc2SCC(=O)Nc2cccc(C(F)(F)F)c2)c1
// result 0.62

// query Fill in reported activation for this entry: Cc1cc(C)c2c(-n3cccc3)c(C(=O)NNS(=O)(=O)c3ccc(F)cc3)sc2n1
// result -0.88

// query Fill in reported activation for this entry: CC(C)Oc1ccc(C(CC(=O)N2CCOCC2)C(C)C)cc1 (configuration not stated)
// result 2.86

// query Fill in reported activation for this entry: Cc1cc(C)nc(SC(C)C(=O)N/N=C/c2cccs2)n1 (configuration not stated)
// result -1.1

// query Fill in reported activation for this entry: CCOc1ccc(S(=O)(=O)N2CCN(C(=O)c3oc4ccccc4c3C)CC2)cc1
// result 1.62

// query Fill in reported activation for this entry: Cc1cc(C)nc(S/C=C/C(=O)c2ccccc2)n1
// result 14.6

// query Fill in reported activation for this entry: Cc1cccc(NC(=O)CN2CCCN(S(=O)(=O)c3ccc(Br)s3)CC2)c1
// result 0.67
